- Tested On: TLX LBD (Homo sapiens (Human), UniProt Q9Y466)
- Sequence (Q9Y466 155-383): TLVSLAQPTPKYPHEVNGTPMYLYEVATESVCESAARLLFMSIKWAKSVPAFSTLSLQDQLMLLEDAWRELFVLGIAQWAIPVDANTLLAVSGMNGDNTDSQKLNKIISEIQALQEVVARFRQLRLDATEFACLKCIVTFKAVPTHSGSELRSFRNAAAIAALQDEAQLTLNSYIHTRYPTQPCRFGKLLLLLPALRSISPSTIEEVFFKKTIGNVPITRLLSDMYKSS
- Assay Remarks: ALPHA screen assay for TLX LBD and coactivator peptide recruitment
- Assay type: biochemical
- Condition Description: Table 3; 200 μM; mean (std. dev.)
Entries and their measured Average ALPHA signal at 200 μM (std. dev.) follow.

>  <Molecule>
CC(C)CCNc1ncccc1C(=O)N1CCN(Cc2ccccc2)CC1 [Compound 29, reference compound]

>  <Result>
2.52 (0.09)

$$$$

Item under review: CC(C)CCNc1ncccc1C(=O)N1C[C@H](CC(=O)O)N(Cc2ccccc2)[C@@H](C)C1 . Reported Average ALPHA signal at 200 μM (std. dev.)?
0.96 (0.03)

Item under review: CCCCCCN1CCN(C(=O)c2cccnc2NCCC(C)C)[C@@H](C)C1 . Reported Average ALPHA signal at 200 μM (std. dev.)?
8.78 (0.30)

Item under review: CC(C)CCNc1ncccc1C(=O)N1CCN(CCC2CCN(C(=O)OC(C)(C)C)CC2)C[C@H]1C . Reported Average ALPHA signal at 200 μM (std. dev.)?
2.84 (0.05)

Item under review: CC(C)CCNc1ncccc1C(=O)N1CCN(Cc2ccccc2)C[C@@H]1CC(C)C . Reported Average ALPHA signal at 200 μM (std. dev.)?
3.65 (0.10)

Item under review: CC(C)CCNc1ncccc1C(=O)N1CCN(Cc2ccccc2)C[C@@H]1Cc1ccccc1 . Reported Average ALPHA signal at 200 μM (std. dev.)?
2.41 (0.07)

Item under review: COC(=O)C[C@@H]1CN(C(=O)c2cccnc2NCCC(C)C)C[C@@H](C)N1Cc1ccccc1 . Reported Average ALPHA signal at 200 μM (std. dev.)?
2.26 (0.07)

Item under review: CCCCN1CCN(C(=O)c2cccnc2NCCC(C)C)[C@@H](C)C1 . Reported Average ALPHA signal at 200 μM (std. dev.)?
2.30 (0.02)

---

- Tested On: TLX LBD (Homo sapiens (Human), UniProt Q9Y466)
- Assay Remarks: ALPHA screen assay for TLX LBD and coactivator peptide recruitment
- Assay type: biochemical
- Condition Description: Table 3; 200 μM; mean (std. dev.)
- Experimental: Assays were performed according to the manufacturer's protocol (PerkinElmer, USA), with the following modifications: Ligands were tested for TLX-coactivator binding in 50 mM phosphate buffer, 150 mM NaCl, pH 7, 1 mM DTT and 100 μM CHAPS. […] The plates were spun down, mixed with a shaker and incubated for 120 minutes and read on a TECAN Plate reader using the manufacturer's protocol.
Entries and their measured Average ALPHA signal at 200 μM (std. dev.) follow.

>  <Molecule>
COC(=O)C[C@H]1[C@@H](C)N(Cc2ccccc2)CCN1C(=O)c1cccnc1NCCC(C)C [Compound 71]

>  <Tested On>
TLX LBD (Homo sapiens (Human), UniProt Q9Y466)

>  <Result>
2.47 (0.03)

$$$$
>  <Molecule>
CC(C)CCNc1ncccc1C(=O)N1CCN(Cc2ccccc2)C[C@H]1CC(C)C [Compound 93]

>  <Tested On>
TLX LBD (Homo sapiens (Human), UniProt Q9Y466)

>  <Result>
3.46 (0.10)

$$$$
>  <Molecule>
Cc1cccc(CN2CCN(C(=O)c3cccnc3NCCC(C)C)[C@@H](C)C2)c1 [Compound 32]

>  <Tested On>
TLX LBD (Homo sapiens (Human), UniProt Q9Y466)

>  <Result>
3.85 (0.09)

$$$$
>  <Molecule>
Cc1ccccc1CN1CCN(C(=O)c2cccnc2NCCC(C)C)[C@H](C)C1 [Compound 43]

>  <Tested On>
TLX LBD (Homo sapiens (Human), UniProt Q9Y466)

>  <Result>
3.49 (0.17)

$$$$
>  <Molecule>
CC(C)CCNc1ncccc1C(=O)N1CCN(CCCc2ccccc2)C[C@@H]1C [Compound 35]

>  <Tested On>
TLX LBD (Homo sapiens (Human), UniProt Q9Y466)

>  <Result>
4.57 (0.38)

$$$$
>  <Molecule>
CC(C)CCNc1ncccc1C(=O)N1C[C@@H](C)N(Cc2ccccc2)C[C@@H]1CC(=O)O [Compound 84]

>  <Tested On>
TLX LBD (Homo sapiens (Human), UniProt Q9Y466)

>  <Result>
1.09 (0.01)

$$$$
>  <Molecule>
CC(C)CCNc1ncccc1C(=O)N1CCN(CCCc2ccccc2)C[C@H]1C [Compound 48]

>  <Tested On>
TLX LBD (Homo sapiens (Human), UniProt Q9Y466)

>  <Result>
3.75 (0.31)

$$$$
>  <Molecule>
COC(=O)C[C@@H]1CN(C(=O)c2cccnc2NCCC(C)C)C[C@H](C)N1Cc1ccccc1 [Compound 61]

>  <Tested On>
TLX LBD (Homo sapiens (Human), UniProt Q9Y466)

>  <Result>
2.89 (0.07)

$$$$

Item under review: CC(C)CCNc1ncccc1C(=O)N1CCN(Cc2ccccc2)[C@H](C)[C@H]1CC(=O)O [Compound 80] . Reported Average ALPHA signal at 200 μM (std. dev.)?
1.11 (0.07)

Item under review: COc1cccc(CN2CCN(C(=O)c3cccnc3NCCC(C)C)[C@@H](C)C2)c1 [Compound 39] . Reported Average ALPHA signal at 200 μM (std. dev.)?
3.19 (0.17)

---

- Tested On: TLX LBD (Homo sapiens (Human), UniProt Q9Y466)
- Assay Remarks: ALPHA screen assay for TLX LBD and coactivator peptide recruitment
- Format: biochemical
- Condition Description: Table 2; 200 μM
Entries and their measured Normalized fold increase at 200 μM follow.
Only the number, expressed in X, is required.

# annotated cases, reported Normalized fold increase at 200 μM shown
>  <Compound String>
CC(C)CCNc1ncccc1C(=O)N1CCN(Cc2ccccc2)C[C@@H]1C

>  <Readout Number>
2.29

$$$$
>  <Compound String>
CC(C)CCNc1ncccc1C(=O)N1CCN(Cc2ccccc2)C[C@H]1C

>  <Readout Number>
2.49

$$$$
>  <Compound String>
CC(C)CCNc1ncccc1C(=O)N1CCN(Cc2ccccc2)[C@H](C)C1

>  <Readout Number>
1.97

$$$$

Item under review: CC(C)CCNc1ncccc1C(=O)N1CCN(Cc2ccccc2)[C@@H](C)C1 . Reported Normalized fold increase at 200 μM?
2.45

---

Entries and their measured Average ALPHA signal at 200 μM (std. dev.) follow.
- Tested On: TLX LBD (Homo sapiens (Human), UniProt Q9Y466)
- Assay Remarks: ALPHA screen assay for TLX LBD and coactivator peptide recruitment
- Type: biochemical
- Condition Description: Table 3; 200 μM; mean (std. dev.)

# annotated cases, reported Average ALPHA signal at 200 μM (std. dev.) shown
>  <Compound>
COc1cccc(CN2CCN(C(=O)c3cccnc3NCCC(C)C)[C@H](C)C2)c1

>  <Result>
2.98 (0.10)

$$$$
>  <Compound>
CC(C)CCNc1ncccc1C(=O)N1CCN(Cc2ccc3cnccc3c2)C[C@H]1C

>  <Result>
2.03 (0.12)

$$$$
>  <Compound>
CCCCN1CCN(C(=O)c2cccnc2NCCC(C)C)[C@H](C)C1

>  <Result>
3.09 (0.12)

$$$$
>  <Compound>
COC(=O)C[C@H]1[C@H](C)N(Cc2ccccc2)CCN1C(=O)c1cccnc1NCCC(C)C

>  <Result>
2.63 (0.01)

$$$$
>  <Compound>
COC(=O)C[C@H]1CN(C(=O)c2cccnc2NCCC(C)C)C[C@@H](C)N1Cc1ccccc1

>  <Result>
2.72 (0.05)

$$$$
>  <Compound>
CC(C)Nc1ncccc1C(=O)N1CCN(Cc2ccccc2)[C@@H](C)C1

>  <Result>
1.57 (0.06)

$$$$
>  <Compound>
CC(C)CCNc1ncccc1C(=O)N1C[C@H](C)N(Cc2ccccc2)C[C@@H]1CC(=O)O

>  <Result>
1.15 (0.02)

$$$$
>  <Compound>
CC(C)CCNc1ncccc1C(=O)N1C[C@@H](C)N(Cc2ccccc2)C[C@H]1CC(=O)O

>  <Result>
1.02 (0.03)

$$$$

Provide value of Average ALPHA signal at 200 μM (std. dev.) for this record tested with TLX LBD (Homo sapiens (Human), UniProt Q9Y466): CC(C)CCNc1ncccc1C(=O)N1CCN(Cc2ccccc2)[C@H](C)[C@@H]1CC(=O)O
1.23 (0.02)

Provide value of Average ALPHA signal at 200 μM (std. dev.) for this record tested with TLX LBD (Homo sapiens (Human), UniProt Q9Y466): COC(=O)C[C@H]1CN(C(=O)c2cccnc2NCCC(C)C)C[C@H](C)N1Cc1ccccc1
2.54 (0.08)

---

- Tested On: TLX LBD (Homo sapiens (Human), UniProt Q9Y466)
- Assay Remarks: ALPHA screen assay for TLX LBD and coactivator peptide recruitment
- Condition Description: Table 3
Quantity Kind: pEC50
// field semantics: pEC50 = negative decimal log of concentration (mol/L)

# annotated cases, reported pEC50 shown
>  <Molecule>
CC(C)CCNc1ncccc1C(=O)N1CCN(Cc2ccc3cnccc3c2)C[C@H]1C

>  <Quantity Kind>
pEC50

>  <Readout Number>
10.58

$$$$
>  <Molecule>
CC(C)CCNc1ncccc1C(=O)N1CCN(Cc2ccccc2)[C@@H](C)C1

>  <Quantity Kind>
pEC50

>  <Readout Number>
10.20

$$$$
>  <Molecule>
COC(=O)C[C@@H]1CN(C(=O)c2cccnc2NCCC(C)C)C[C@H](C)N1Cc1ccccc1

>  <Quantity Kind>
pEC50

>  <Readout Number>
10.82

$$$$
>  <Molecule>
CC(C)CCNc1ncccc1C(=O)N1CCN(Cc2ccccc2)[C@H](C)C1

>  <Quantity Kind>
pEC50

>  <Readout Number>
10.07

$$$$
>  <Molecule>
CCCCCCN1CCN(C(=O)c2cccnc2NCCC(C)C)[C@H](C)C1

>  <Quantity Kind>
pEC50

>  <Readout Number>
10.90

$$$$
>  <Molecule>
Cc1ccc(CN2CCN(C(=O)c3cccnc3NCCC(C)C)[C@H](C)C2)cc1

>  <Quantity Kind>
pEC50

>  <Readout Number>
10.95

$$$$
>  <Molecule>
COC(=O)C[C@H]1CN(Cc2ccccc2)[C@H](C)CN1C(=O)c1cccnc1NCCC(C)C

>  <Quantity Kind>
pEC50

>  <Readout Number>
10.90

$$$$
>  <Molecule>
CC(C)CCNc1ncccc1C(=O)N1CCN(Cc2ccccc2)C[C@@H]1Cc1ccccc1

>  <Quantity Kind>
pEC50

>  <Readout Number>
11.50

$$$$
>  <Molecule>
CC(C)CCNc1ncccc1C(=O)N1CCN(Cc2ccccc2)CC1 [Compound 29, reference compound]

>  <Quantity Kind>
pEC50

>  <Readout Number>
10.44

$$$$
>  <Molecule>
COc1cccc(CN2CCN(C(=O)c3cccnc3NCCC(C)C)[C@H](C)C2)c1

>  <Quantity Kind>
pEC50

>  <Readout Number>
10.70

$$$$

Provide value of pEC50 for this record tested with TLX LBD (Homo sapiens (Human), UniProt Q9Y466): CC(C)CCNc1ncccc1C(=O)N1CCN(CCC2CCN(C(=O)OC(C)(C)C)CC2)C[C@@H]1C
11.23

Provide value of pEC50 for this record tested with TLX LBD (Homo sapiens (Human), UniProt Q9Y466): COC(=O)C[C@@H]1CN(Cc2ccccc2)[C@@H](C)CN1C(=O)c1cccnc1NCCC(C)C
11.01
